target: pneumolysin (Streptococcus pneumoniae serotype 2); assay: Inhibition of the haemolytic activity of pneumolysin (sheep erythrocytes); format: cell-based; conditions: IC50, inhibition of pneumolysin-induced haemolysis of sheep erythrocytes; class symbols of Table 1
Sequence (Q04IN8 whole entry): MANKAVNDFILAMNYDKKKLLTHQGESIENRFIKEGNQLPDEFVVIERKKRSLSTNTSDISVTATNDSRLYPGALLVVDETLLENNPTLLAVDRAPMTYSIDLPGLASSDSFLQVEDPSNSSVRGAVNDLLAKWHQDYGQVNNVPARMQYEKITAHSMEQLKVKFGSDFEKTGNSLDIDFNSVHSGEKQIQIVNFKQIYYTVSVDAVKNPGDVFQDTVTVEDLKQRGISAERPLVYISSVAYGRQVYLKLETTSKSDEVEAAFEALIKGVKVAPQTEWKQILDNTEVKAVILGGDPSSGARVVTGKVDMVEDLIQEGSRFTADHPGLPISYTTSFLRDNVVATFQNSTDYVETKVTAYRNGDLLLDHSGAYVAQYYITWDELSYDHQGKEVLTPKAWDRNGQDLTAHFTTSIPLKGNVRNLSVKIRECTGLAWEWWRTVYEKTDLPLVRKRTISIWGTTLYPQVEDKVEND
attribute_measured: IC50

                           structure_string  attribute_measured      reading
0  CCN(CC)C(=O)c1c(O)c(O)c(C(=O)N(CC)CC)n1-c1ccc(F)cc1                IC50      < 10 µM
1  CCCOc1ccc(-n2c(C(=O)OCC)c(O)c(O)c2C(=O)OCC)cc1                IC50      < 10 µM
2  CC(C)N(C)C(=O)c1c(O)c(O)c(C(=O)N(C)C(C)C)n1-c1ccc(F)cc1                IC50      < 10 µM
3  CCOC(=O)c1c(OC(=O)C(C)C)c(OC(=O)C(C)C)c(C(=O)N(C)C)n1-c1ccc(OC)cc1                IC50  20 to 60 µM
4        COc1ccc(-n2c(C#N)c(O)c(O)c2C#N)cc1                IC50  20 to 60 µM

Noted for CCOC(=O)c1c(OC(=O)CCOC)c(OC(=O)CCOC)c(C(=O)N(C)C)n1-c1ccc(OC)cc1 : its IC50 reads < 10 µM
